// values below are reported survival
Tested on: DeltatarO mutant
Test: S. aureus survival, RN4220 and DeltatarO strains – OD600, teichoic acid synthesis inhibitors, primary screen (AID 463173)
Conditions: S. aureus RN4220 wild type/DeltatarO growth, OD600, 18 h, active compounds read low, screened at 18.75 µg/mL (by protocol)
The campaign covered roughly 52,000 compounds. About 4,300 (8.3%) were called active. The list comes from a sample in which actives are over-represented; it also holds close analogues and randomly drawn compounds.
Respond numerically; units are % and should not be typed.

In [3]: df
Out[3]:
                                   compound     target_entity  value_measured
0  COc1ccc(NC(=O)C(C)n2nc(-c3ccc(C)c(C)c3)ccc2=O)cc1OC (stereo not given)  DeltatarO mutant              69
1  CC1CCC(Nc2ncnc3onc(-c4ccc(F)cc4)c23)CC1 (stereo not given)  DeltatarO mutant              82
2   Clc1ccc(-c2noc3ncnc(NCCc4ccccc4)c23)cc1  DeltatarO mutant              78
3  Cc1ccc(Cl)cc1NC(=O)C(C)n1nnc2sc(-c3ccccc3)cc2c1=O (stereo not given)  DeltatarO mutant              59
4  CCC(C(=O)Nc1cc(Cl)ccc1OC)n1nc(-c2ccccc2)ccc1=O (stereo not given)  DeltatarO mutant              24
5  O=C(Nc1nc2c(F)cc(F)cc2s1)c1ccc(S(=O)(=O)N2CCc3ccccc32)cc1  DeltatarO mutant             115

Q: Return survival for the following compound: `Fc1ccc(-c2noc3ncnc(NC4CCCCC4)c23)cc1`
A: 67

Q: For the compound CCCCN(CC)CCNC(=O)C1CCCN(S(=O)(=O)c2cccc3nsnc23)C1 (stereo not given) , give its reported survival.
A: 117

Q: Indicate the recorded survival value for this compound: CCC(C(=O)Nc1cccc(Cl)c1C)n1nc(-c2ccc(C)cc2)ccc1=O (stereo not given)
A: 41

Q: Give a short answer stating reported survival for `Cc1ccc(CCNc2ncnc3onc(-c4ccc(Cl)cc4)c23)cc1` .
A: 46
